- Assay Target: βTrCP (Homo sapiens, UniProt Q9Y297)
- Method Description: Biotin pull down assay with biotinylated IκB peptide
- Type: binding
- Test Conditions: 100 μM compound
- Sequence (Q9Y297 whole entry): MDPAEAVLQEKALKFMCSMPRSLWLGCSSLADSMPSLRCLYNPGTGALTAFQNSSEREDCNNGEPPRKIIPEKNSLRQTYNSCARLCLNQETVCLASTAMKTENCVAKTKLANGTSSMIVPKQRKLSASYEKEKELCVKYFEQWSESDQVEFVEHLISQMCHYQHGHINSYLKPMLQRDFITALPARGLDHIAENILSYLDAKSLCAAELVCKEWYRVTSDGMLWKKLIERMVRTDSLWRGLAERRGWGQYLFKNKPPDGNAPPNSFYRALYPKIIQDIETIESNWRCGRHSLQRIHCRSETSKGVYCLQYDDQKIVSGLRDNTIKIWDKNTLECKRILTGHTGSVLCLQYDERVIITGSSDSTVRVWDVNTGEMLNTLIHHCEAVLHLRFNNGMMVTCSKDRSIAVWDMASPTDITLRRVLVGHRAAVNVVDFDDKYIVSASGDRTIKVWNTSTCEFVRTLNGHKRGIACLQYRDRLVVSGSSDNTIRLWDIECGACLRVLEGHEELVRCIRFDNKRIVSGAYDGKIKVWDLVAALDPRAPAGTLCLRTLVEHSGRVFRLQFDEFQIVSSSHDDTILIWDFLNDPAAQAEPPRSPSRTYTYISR
Starred links: 1 amine or outer side, 2 acyl side, 3 side chain; linkers in the order of their positions; H or OH if unused. Non-standard residues stand in square brackets, D forms with d. Residues, ends and D or L forms follow the SMILES beside them. *: point of attachment. Phe(4-NO2) = N[C@@H](Cc1ccc([N+](=O)[O-])cc1)C(=O)O; Phe(3-F) = N[C@@H](Cc1cccc(F)c1)C(=O)O; Phe(4-F) = N[C@@H](Cc1ccc(F)cc1)C(=O)O; NMeE = CN[C@@H](CCC(=O)O)C(=O)O; Suc = O=C(CCC(=O)[*:2])[*:1]; Tos = Cc1ccc(S(=O)(=O)*)cc1; Propionyl = CCC(=O)*
Assay Metric: Biotin Pulldown Assay 100 μM

{"Compound": "NC(=O)[C@H](CCC(=O)O)NC(=O)[C@H](Cc1ccc([N+](=O)[O-])cc1)NC(=O)[C@H](Cc1ccc(O)cc1)NC(=O)CNC(=O)[C@H](CCC(=O)O)NC(=O)CCC(=O)O [UBP013, Suc-EGYF(4NO2)E-NH2] (Suc-EGY[Phe(4-NO2)]E-NH2)", "Observed Result": "inhibits"}
{"Compound": "NC(=O)[C@H](CCC(=O)O)NC(=O)[C@H](Cc1ccc([N+](=O)[O-])cc1)NC(=O)[C@H](Cc1ccc(F)cc1)NC(=O)CNC(=O)[C@H](CCC(=O)O)NC(=O)CCC(=O)O [UBP005, Suc-EGF(4F)F(4NO2)E-NH2] (Suc-EG[Phe(4-F)][Phe(4-NO2)]E-NH2)", "Observed Result": "inhibits"}
{"Compound": "CCC(=O)N[C@H](CC(=O)O)C(=O)N[C@@H](CCC(=O)O)C(=O)NCC(=O)N[C@@H](Cc1cccc(F)c1)C(=O)N[C@@H](Cc1c[nH]c2ccccc12)C(=O)N[C@@H](CCC(=O)O)C(N)=O [UBP019, Et(CO)-dEGF(3F)WE-NH2] (Propionyl-[dD]EG[Phe(3-F)]WE-NH2)", "Observed Result": "inhibits"}
{"Compound": "Cc1ccc(S(=O)(=O)N[C@H](CC(=O)O)C(=O)N[C@@H](CCC(=O)O)C(=O)NCC(=O)N[C@@H](Cc2cccc(F)c2)C(=O)N[C@@H](Cc2c[nH]c3ccccc23)C(=O)N(C)[C@@H](CCC(=O)O)C(N)=O)cc1 [UBP032, Ts-dEGF(3F)WE(Me)-NH2] (Tos-[dD]EG[Phe(3-F)]W[NMeE]-NH2)", "Observed Result": "inhibits"}

---

Can you tell me IC50 for the items I'm about to list?
- Assay Target: βTrCP (Homo sapiens, UniProt Q9Y297)
- Method Description: Fluorescence polarisation (FP) binding assay with fluorescein-tagged IκB peptide
- Test Conditions: Tables 1, 3, 7, 8; 10 nM fluorescein-tagged IκB peptide; read-out: FP Assay IC50/μM
- Sequence (Q9Y297 whole entry): as above
- Sequence (P63208 whole entry partner): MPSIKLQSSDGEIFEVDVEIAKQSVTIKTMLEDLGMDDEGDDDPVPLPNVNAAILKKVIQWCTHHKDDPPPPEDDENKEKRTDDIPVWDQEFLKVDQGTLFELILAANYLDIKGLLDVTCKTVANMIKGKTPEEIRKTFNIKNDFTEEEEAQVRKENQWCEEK
Starred links: 1 amine or outer side, 2 acyl side, 3 side chain; linkers in the order of their positions; H or OH if unused. Non-standard residues stand in square brackets, D forms with d. Residues, ends and D or L forms follow the SMILES beside them. *: point of attachment. Phe(3-Cl) = N[C@@H](Cc1cccc(Cl)c1)C(=O)O; Phe(3-F) = N[C@@H](Cc1cccc(F)c1)C(=O)O; 1Nal = N[C@@H](Cc1cccc2ccccc12)C(=O)O; 3Pal = N[C@@H](Cc1cccnc1)C(=O)O; NMeE = CN[C@@H](CCC(=O)O)C(=O)O; Suc = O=C(CCC(=O)[*:2])[*:1]; Tos = Cc1ccc(S(=O)(=O)*)cc1
Answers are plain numbers, in µM.

Worked cases, IC50 given:
{"Molecule": "NC(=O)[C@H](CCC(=O)O)NC(=O)[C@H](Cc1cccc2ccccc12)NC(=O)[C@H](Cc1cccc(F)c1)NC(=O)CNC(=O)[C@H](CCC(=O)O)NC(=O)CCC(=O)O [UBP010, Suc-EGF(3F)1NalE-NH2] (Suc-EG[Phe(3-F)][1Nal]E-NH2)", "Assay Target": "βTrCP (Homo sapiens, UniProt Q9Y297)", "Output Unit": "µM", "IC50": 0.157}
{"Molecule": "C[C@H](NC(=O)[C@H](CCC(=O)O)NC(=O)CCC(=O)O)C(=O)N[C@@H](Cc1ccccc1)C(=O)N[C@@H](Cc1ccccc1)C(=O)N[C@@H](CCC(=O)O)C(N)=O", "Assay Target": "βTrCP (Homo sapiens, UniProt Q9Y297)", "Output Unit": "µM", "IC50": 59.8}
{"Molecule": "Cc1ccc(S(=O)(=O)N[C@H](CC(=O)O)C(=O)N[C@@H](CC(=O)O)C(=O)NCC(=O)N[C@@H](Cc2cccc(F)c2)C(=O)N[C@@H](Cc2c[nH]c3ccccc23)C(=O)N[C@@H](CCC(=O)O)C(N)=O)cc1 [UBP025, Ts-dDGF(3F)WE-NH2] (Tos-[dD]DG[Phe(3-F)]WE-NH2)", "Assay Target": "βTrCP (Homo sapiens, UniProt Q9Y297)", "Output Unit": "µM", "IC50": 0.025}

I'm hoping you can list IC50 for every molecule here, please.
1. NC(=O)[C@H](Cc1cccnc1)NC(=O)[C@H](Cc1cccc(F)c1)NC(=O)CNC(=O)[C@H](CCC(=O)O)NC(=O)CCC(=O)O [Suc-EG-F(3F)-3Pal-NH2] (Suc-EG[Phe(3-F)][3Pal]-NH2)
2. Cc1ccc(S(=O)(=O)N[C@H](CC(=O)O)C(=O)N[C@@H](CCC(=O)O)C(=O)NCC(=O)N[C@@H](Cc2cccc(Cl)c2)C(=O)N[C@@H](Cc2c[nH]c3ccccc23)C(=O)N(C)[C@@H](CCC(=O)O)C(N)=O)cc1 [UBP033, Ts-dEGF(3Cl)WE(Me)-NH2] (Tos-[dD]EG[Phe(3-Cl)]W[NMeE]-NH2)
3. C[C@H](NC(=O)CCC(=O)O)C(=O)NCC(=O)N[C@@H](Cc1ccc(O)cc1)C(=O)N[C@@H](Cc1ccccc1)C(=O)N[C@@H](CCC(=O)O)C(N)=O

output:
1. 70
2. 0.017
3. 22.2

---

- Assay Target: FBW7/Skp1 (Homo sapiens, UniProt Q969H0)
- Sequence (Q969H0 whole entry, species assumed, one chain of several): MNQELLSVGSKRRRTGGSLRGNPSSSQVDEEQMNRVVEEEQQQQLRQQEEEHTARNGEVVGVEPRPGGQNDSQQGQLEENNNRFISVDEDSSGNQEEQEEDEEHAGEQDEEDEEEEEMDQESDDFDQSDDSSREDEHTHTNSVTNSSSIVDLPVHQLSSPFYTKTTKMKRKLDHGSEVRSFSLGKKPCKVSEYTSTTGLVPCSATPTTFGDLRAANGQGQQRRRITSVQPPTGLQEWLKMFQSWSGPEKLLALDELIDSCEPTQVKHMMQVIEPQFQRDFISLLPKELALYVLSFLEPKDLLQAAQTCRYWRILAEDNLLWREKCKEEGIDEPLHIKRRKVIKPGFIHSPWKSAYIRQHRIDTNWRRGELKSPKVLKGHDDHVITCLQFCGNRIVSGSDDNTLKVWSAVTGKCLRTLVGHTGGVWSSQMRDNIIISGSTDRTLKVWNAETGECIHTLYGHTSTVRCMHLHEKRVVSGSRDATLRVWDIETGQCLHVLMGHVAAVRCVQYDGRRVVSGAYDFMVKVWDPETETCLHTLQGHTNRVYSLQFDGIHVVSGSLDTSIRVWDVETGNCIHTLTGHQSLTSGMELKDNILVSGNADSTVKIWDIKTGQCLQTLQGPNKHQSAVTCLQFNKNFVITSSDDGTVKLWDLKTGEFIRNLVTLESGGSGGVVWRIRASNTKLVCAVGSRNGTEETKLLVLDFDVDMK
- Sequence (Q13616 whole entry partner, species assumed, one chain of several): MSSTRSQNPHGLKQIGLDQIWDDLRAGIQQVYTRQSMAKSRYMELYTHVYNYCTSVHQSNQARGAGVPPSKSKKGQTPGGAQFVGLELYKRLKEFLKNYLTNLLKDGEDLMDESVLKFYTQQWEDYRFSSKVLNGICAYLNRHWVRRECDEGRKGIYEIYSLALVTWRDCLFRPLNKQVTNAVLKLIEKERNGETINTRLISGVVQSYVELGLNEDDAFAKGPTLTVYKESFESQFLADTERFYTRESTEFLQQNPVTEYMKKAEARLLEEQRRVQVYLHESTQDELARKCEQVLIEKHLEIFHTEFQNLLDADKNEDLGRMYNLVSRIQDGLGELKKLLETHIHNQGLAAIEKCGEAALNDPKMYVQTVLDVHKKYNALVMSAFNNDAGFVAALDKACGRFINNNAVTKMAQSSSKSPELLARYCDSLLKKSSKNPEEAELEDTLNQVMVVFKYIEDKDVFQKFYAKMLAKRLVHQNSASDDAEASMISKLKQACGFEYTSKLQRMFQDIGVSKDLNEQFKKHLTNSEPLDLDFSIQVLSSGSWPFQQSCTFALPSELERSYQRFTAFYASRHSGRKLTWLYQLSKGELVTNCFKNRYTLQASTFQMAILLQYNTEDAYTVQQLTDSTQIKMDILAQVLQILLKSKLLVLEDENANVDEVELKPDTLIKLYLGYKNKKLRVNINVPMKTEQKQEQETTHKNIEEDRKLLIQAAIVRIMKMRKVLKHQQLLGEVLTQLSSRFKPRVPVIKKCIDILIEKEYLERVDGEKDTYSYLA
- Sequence (P62877 whole entry partner, species assumed, one chain of several): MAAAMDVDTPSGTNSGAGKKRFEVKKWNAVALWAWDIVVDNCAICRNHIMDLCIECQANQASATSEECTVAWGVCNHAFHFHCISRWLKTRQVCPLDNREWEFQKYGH
- Method Description: Selectivity assay vs other E3s: Fbw7
- Type: biochemical
- Test Conditions: 100 μM, value in brackets; read-out: % Inhibition Fbw7 @ (100 μM)
Starred links: 1 amine or outer side, 2 acyl side, 3 side chain; linkers in the order of their positions; H or OH if unused. Non-standard residues stand in square brackets, D forms with d. Residues, ends and D or L forms follow the SMILES beside them. *: point of attachment. 2Naphthylsulfonyl = O=S(=O)(c1ccc2ccccc2c1)*; Phe(3-F) = N[C@@H](Cc1cccc(F)c1)C(=O)O; Suc = O=C(CCC(=O)[*:2])[*:1]
Assay Metric: inhibition at 100 µM
The reply should consist of the numeric value with the unit placed after it.

Check out these entries, answers already filled in.
{"Compound": "NC(=O)[C@H](CCC(=O)O)NC(=O)[C@H](Cc1ccccc1)NC(=O)[C@H](Cc1ccccc1)NC(=O)CNC(=O)[C@H](CCC(=O)O)NC(=O)CCC(=O)O [UBP002, Suc-EGFFE-NH2] (Suc-EGFFE-NH2)", "Observed Result": "0%"}
{"Compound": "NC(=O)[C@H](CCC(=O)O)NC(=O)[C@H](Cc1c[nH]c2ccccc12)NC(=O)[C@H](Cc1cccc(F)c1)NC(=O)CNC(=O)[C@H](CCC(=O)O)NC(=O)[C@@H](CC(=O)O)NS(=O)(=O)c1ccc2ccccc2c1 [UBP031, 2-NaphthylSO2-dEGF(3F)WE-NH2] (2Naphthylsulfonyl-[dD]EG[Phe(3-F)]WE-NH2)", "Observed Result": "11%"}

Attention now turns to another entry.
input: Need inhibition at 100 µM, item NC(=O)[C@H](CCC(=O)O)NC(=O)[C@H](Cc1c[nH]c2ccccc12)NC(=O)[C@H](Cc1cccc(F)c1)NC(=O)CNC(=O)[C@H](CCC(=O)O)NC(=O)CCC(=O)O [UBP014, Suc-EGF(3F)WE-NH2] (Suc-EG[Phe(3-F)]WE-NH2)
output: 0%

---

- Assay Target: βTrCP (Homo sapiens, UniProt Q9Y297)
- Method Description: Fluorescence polarisation (FP) binding assay with fluorescein-tagged IκB peptide
- Test Conditions: Tables 1, 3, 7, 8; 10 nM fluorescein-tagged IκB peptide; read-out: FP Assay IC50/μM
Starred links: 1 amine or outer side, 2 acyl side, 3 side chain; linkers in the order of their positions; H or OH if unused. Non-standard residues stand in square brackets, D forms with d. Residues, ends and D or L forms follow the SMILES beside them. *: point of attachment. Benzoyl(2-COOH) = O=C(O)c1ccccc1C(=O)*; Phe(3-F) = N[C@@H](Cc1cccc(F)c1)C(=O)O; Phe(2-F) = N[C@@H](Cc1ccccc1F)C(=O)O; Suc = O=C(CCC(=O)[*:2])[*:1]
Assignment: determine reported IC50 for the given compounds.

# return IC50 for each item in the list
1. CC[C@H](C)[C@H](NC(=O)CNC(=O)[C@H](C)NC(=O)CCC(=O)O)C(=O)N[C@@H](Cc1ccccc1)C(=O)N[C@@H](CCC(=O)O)C(N)=O [Suc-AGIFE-NH2] (Suc-AGIFE-NH2)
2. NC(=O)[C@H](Cc1cccc(F)c1)NC(=O)[C@H](Cc1ccccc1F)NC(=O)CNC(=O)[C@H](CCC(=O)O)NC(=O)CCC(=O)O [Suc-EG-F(2F)-F(3F)-NH2] (Suc-EG[Phe(2-F)][Phe(3-F)]-NH2)
3. C[C@H](NC(=O)c1ccccc1C(=O)O)C(=O)NCC(=O)N[C@@H](Cc1ccccc1)C(=O)N[C@@H](Cc1ccccc1)C(=O)N[C@@H](CCC(=O)O)C(N)=O [Phth-AGFFE-NH2] ({Benzoyl(2-COOH)}-AGFFE-NH2)

output:
["> 100 µM", "> 100 µM", "> 100 µM"]

Origin of the recorded values: patent US20190106460A1
